- Test system: NCI-H727
- assayProtocol: relative viability (nuclei count vs DMSO), 5 days (fraction); higher = more cells survive
- testSettings: first compound 158.11 µM
Documented relative viability across a set of compounds
Enter a number only.

[[record]]
compound = "O=C(O)CCCCC(CCSCc1ccccc1)SCc1ccccc1 (stereo not drawn) [CPI-613] + CS(=O)(=O)N1CCN(Cc2cc3nc(-c4cccc5[nH]ncc45)nc(N4CCOCC4)c3s2)CC1 [Pictilisib] (partner 1 µM)"
observedvalue = 0.33

[[record]]
compound = "O=C(O)CCCCC(CCSCc1ccccc1)SCc1ccccc1 (stereo not drawn) [CPI-613] + COc1cc2c(Oc3ccc(NC(=O)C4(C(=O)Nc5ccc(F)cc5)CC4)cc3F)ccnc2cc1OCCCN1CCOCC1 [Foretinib] (partner 0.25 µM)"
observedvalue = 0.572

[[record]]
compound = "O=C(O)CCCCC(CCSCc1ccccc1)SCc1ccccc1 (stereo not drawn) [CPI-613] + CC(=O)Nc1cccc(-n2c(=O)n(C3CC3)c(=O)c3c(Nc4ccc(I)cc4F)n(C)c(=O)c(C)c32)c1 [Trametinib] (partner 0.02 µM)"
observedvalue = 0.374

[[record]]
compound = "O=C(O)CCCCC(CCSCc1ccccc1)SCc1ccccc1 (stereo not drawn) [CPI-613] + Cc1cc(Nc2cc(N3CCN(C)CC3)nc(Sc3ccc(NC(=O)C4CC4)cc3)n2)n[nH]1 [Tozasertib] (partner 0.1 µM)"
observedvalue = 0.369

[[record]]
compound = "O=C(O)CCCCC(CCSCc1ccccc1)SCc1ccccc1 (stereo not drawn) [CPI-613] + COc1cccc2cc(-c3nc([C@H]4CC[C@H](C(=O)O)CC4)n4ncnc(N)c34)[nH]c12 [OSI-027] (partner 0.5 µM)"
observedvalue = 0.339


# input So what does the record say about relative viability for O=C(O)CCCCC(CCSCc1ccccc1)SCc1ccccc1 (stereo not drawn) [CPI-613] + CC(C)C[C@H](NC(=O)[C@H](Cc1ccccc1)NC(=O)c1cnccn1)B(O)O [Bortezomib] (partner 0.002 µM) ?
# output 0.665

# input Try this compound next: O=C(O)CCCCC(CCSCc1ccccc1)SCc1ccccc1 (stereo not drawn) [CPI-613] + Cc1nc(NC(=O)N2CCC[C@H]2C(N)=O)sc1-c1ccnc(C(C)(C)C(F)(F)F)c1 [Alpelisib] (partner 2 µM)
# output 0.226

# input Try this compound too: O=C(O)CCCCC(CCSCc1ccccc1)SCc1ccccc1 (stereo not drawn) [CPI-613] + C[C@]1(O)C[C@@H](c2nc(-c3ccc4ccc(-c5ccccc5)nc4c3)c3c(N)nccn32)C1 [Linsitinib] (partner 1 µM)
# output 0.216
